# Experiment: Selectivity index, ratio of IC50 for rat L6 cells to IC50 for axenic amastigote form of Leishmania donovani strain MHOM-ET-67/L82
# Assay type: toxicity, cell-based
# Particulars: read-out: Ratio IC50
Each item that follows carries a reported selectivity ratio.
Form field (numeric): enter value without unit.

NCCCNCCCNCCCNCc1ccc(OC2=CC(=O)c3cc4ccccc4cc3C2=O)cc1 2.03
NCCCCNCc1ccc(OC2=CC(=O)c3ccccc3C2=O)cc1 1.63
NCCCNCCCCNCCCNCc1ccc(OC2=CC(=O)c3ccccc3C2=O)cc1 1.22
NCCCNCCCNCCCNCc1ccc(OC2=CC(=O)c3ccccc3C2=O)cc1 0.89
NCCCCNCc1ccc(OC2=CC(=O)c3cc4ccccc4cc3C2=O)cc1 1.98
CCCCCCCCCCCCCCCCOP(=O)([O-])OCC[N+](C)(C)C 462
NCCCNCCCCNCCCNCc1ccc(OC2=CC(=O)c3cc4ccccc4cc3C2=O)cc1 2.15
NCCCCCNCc1ccc(OC2=CC(=O)c3cc4ccccc4cc3C2=O)cc1 2.06

Challenge: Entry under review: NCCCNCCCCNCc1ccc(OC2=CC(=O)c3ccccc3C2=O)cc1 . Reported selectivity ratio?
Response given: 1.28

Challenge: Entry under review: NCCCNCCCCNCc1ccc(OC2=CC(=O)c3cc4ccccc4cc3C2=O)cc1 . Reported selectivity ratio?
Response given: 2.01
